target: CVB3 3C^pro (Coxsackievirus B3, UniProt Q5UEA2); assay: biochemical
Listing of entries alongside the reported IC50.
Please give a number only; it is taken to be in µM.

Here's what some known entries look like.
INSERT INTO assay_data (molecule, measuredtarget, measuredendpoint, result) VALUES
  ('O=C(NCc1ccccc1)C(=O)[C@H](C[C@@H]1CCNC1=O)NC(=O)[C@H](Cc1ccccc1)NC(=O)c1cccc2c1OCCO2 [11i]', 'CVB3 3C^pro (Coxsackievirus B3, UniProt Q5UEA2)', 'IC50', 4.82),
  ('O=C(NCc1ccccc1)C(=O)[C@H](C[C@@H]1CCNC1=O)NC(=O)[C@H](Cc1ccccc1)NC(=O)c1ccc2c(c1)OCCO2 [11h]', 'CVB3 3C^pro (Coxsackievirus B3, UniProt Q5UEA2)', 'IC50', 3.66);

Moving on to the next molecule.
Lookup: I have this molecule here, O=C(NCc1ccccc1)C(=O)[C@H](C[C@@H]1CCNC1=O)NC(=O)[C@H](Cc1ccccc1)NC(=O)c1cc2ccccc2s1 [11k] , and I need its recorded IC50.
Found: 18.6

Taken from paper doi:10.1101/2020.02.10.936898v1.
